target: Acetylcholinesterase (Electrophorus electricus); construct: The enzyme employed was prepared from the electric organ of the electric eel; from tissue; host or cells: electric organ of the electric eel; test: Acetylcholinesterase activity, acetylthiocholine substrate, colorimetric (Ellman); type: biochemical, electric eel
Sequence (O42275 24-633): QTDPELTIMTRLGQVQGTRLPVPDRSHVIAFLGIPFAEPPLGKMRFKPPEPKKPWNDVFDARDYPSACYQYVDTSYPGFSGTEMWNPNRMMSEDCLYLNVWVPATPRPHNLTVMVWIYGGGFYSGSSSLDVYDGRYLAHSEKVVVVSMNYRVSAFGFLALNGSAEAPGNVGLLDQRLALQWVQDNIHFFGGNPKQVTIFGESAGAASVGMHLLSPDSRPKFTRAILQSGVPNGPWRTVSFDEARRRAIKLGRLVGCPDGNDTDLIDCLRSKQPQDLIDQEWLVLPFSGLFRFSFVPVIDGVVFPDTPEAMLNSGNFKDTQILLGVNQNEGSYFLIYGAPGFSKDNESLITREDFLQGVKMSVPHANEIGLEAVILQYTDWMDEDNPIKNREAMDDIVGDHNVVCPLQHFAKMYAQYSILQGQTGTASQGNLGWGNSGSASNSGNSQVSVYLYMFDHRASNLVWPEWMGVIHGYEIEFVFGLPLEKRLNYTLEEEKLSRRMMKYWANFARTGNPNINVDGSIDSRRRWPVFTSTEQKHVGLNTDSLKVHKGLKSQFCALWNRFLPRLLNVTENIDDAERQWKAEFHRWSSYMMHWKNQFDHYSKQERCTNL
RESULT_TYPE: IC50 (nM)

>>> measured("CCN(CC)CCCC(C)Nc1c2ccc(Cl)cc2nc2ccc(OC)cc12 (centres unmarked)")
4000
>>> measured("CCN(CC)Cc1cc(Nc2ccnc3cc(Cl)ccc23)ccc1O")
4
